Test: Levels of estriol in saliva of human volunteers treated with skin cream
Format: in vivo
Conditions: topical, human volunteers, 0.5% estriol skin cream, 4 ml daily for 2 days (20 mg), 24 hours after second application, read-out: Salivary concentration of estriol (group average)

molecule: C[C@]12CC[C@@H]3c4ccc(O)cc4CC[C@H]3[C@@H]1C[C@@H](O)[C@@H]2O [Estriol]
concentration at 24 h: ~1.5 ng/mL

---

Assay: Levels of estriol in saliva of human volunteers treated with skin cream
Format: in vivo
Conditions: topical, human volunteers, 0.1% estriol skin cream, 4 ml daily for 2 days (4 mg), 24 hours after second application, read-out: Salivary concentration of estriol (group average)

query smiles: C[C@]12CC[C@@H]3c4ccc(O)cc4CC[C@H]3[C@@H]1C[C@@H](O)[C@@H]2O
concentration at 24 h: ~0.3 ng/mL

Measured values drawn from patent US20030186954A1 for this set.
